Target: Prostaglandin G/H synthase 2 (Homo sapiens, UniProt P35354)
Sequence (P35354 whole entry): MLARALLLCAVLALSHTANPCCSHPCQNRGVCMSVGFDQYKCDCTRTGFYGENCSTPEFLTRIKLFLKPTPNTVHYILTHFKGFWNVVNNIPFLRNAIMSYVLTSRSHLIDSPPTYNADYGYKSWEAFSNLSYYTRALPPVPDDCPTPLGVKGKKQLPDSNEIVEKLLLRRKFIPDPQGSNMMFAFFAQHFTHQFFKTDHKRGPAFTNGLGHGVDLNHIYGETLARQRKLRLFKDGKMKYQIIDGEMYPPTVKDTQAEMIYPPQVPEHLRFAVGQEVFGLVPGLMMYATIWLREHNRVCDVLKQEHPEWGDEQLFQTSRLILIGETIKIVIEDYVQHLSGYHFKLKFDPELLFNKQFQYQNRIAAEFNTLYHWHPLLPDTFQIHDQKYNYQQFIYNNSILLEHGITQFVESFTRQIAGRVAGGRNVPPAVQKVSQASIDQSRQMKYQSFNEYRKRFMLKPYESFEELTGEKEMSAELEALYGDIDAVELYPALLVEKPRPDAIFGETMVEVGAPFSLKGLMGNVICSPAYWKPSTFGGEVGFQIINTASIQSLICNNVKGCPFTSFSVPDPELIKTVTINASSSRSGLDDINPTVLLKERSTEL
Test: Inhibition of human recombinant COX-2 using arachidonic acid as substrate preincubated for 5 mins followed by substrate addition measured after 5 mins by HPLC analysis
pIC50: −log10 of the molar value.
attribute-measured: pIC50

molecule CC(C)=CCC[C@H](C(=O)O)[C@@H]1CC[C@]2(C)C3=C(CC[C@@]12C)[C@@]1(C)CC[C@@H](O)C(C)(C)[C@@H]1CC3 , pIC50 observed: < 5.00
